Target: UniProtKB P50406
Sequence (P50406 whole entry): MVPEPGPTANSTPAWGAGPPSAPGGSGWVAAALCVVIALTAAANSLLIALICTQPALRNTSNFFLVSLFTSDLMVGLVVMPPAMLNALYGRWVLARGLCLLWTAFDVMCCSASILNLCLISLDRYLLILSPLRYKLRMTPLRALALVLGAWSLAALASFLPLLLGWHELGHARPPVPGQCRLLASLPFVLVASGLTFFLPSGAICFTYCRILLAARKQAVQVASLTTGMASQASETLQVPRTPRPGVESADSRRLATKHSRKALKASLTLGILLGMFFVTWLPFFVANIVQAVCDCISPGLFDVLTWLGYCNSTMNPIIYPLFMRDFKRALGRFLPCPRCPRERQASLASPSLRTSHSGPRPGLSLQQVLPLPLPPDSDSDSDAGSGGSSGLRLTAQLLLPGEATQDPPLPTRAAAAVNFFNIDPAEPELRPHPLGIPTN
Assay: Cellular functional assay, 5-HT6 serotoninergic receptors
Format: cell-based
Details: agonist mode; percent of control specific agonist response
Method: The results are expressed as a percent of control specific agonist response ((measured specific response/control specific agonist response)×100) obtained in the presence of the test compounds. […] For the antagonists, the apparent dissociation constants (Kb) were calculated using the modified Cheng Prusoff equation (Kb=IC50/(1+(A/EC50A)), where A=concentration of reference agonist in the assay, and EC50A=EC50 value of the reference agonist).
quantity_kind: 5-HT6 ag [%]
I'd appreciate it if you included the unit after the number.

A selection of reference data follows.
> print(dat)
                                   compound     system.tested  reported.result
1  Cc1c(S(=O)(=O)NC2CCN(CCCc3noc4cc(F)ccc34)C2)sc2ccc(F)cc12 (centres unmarked) [Compound 28]  UniProtKB P50406              −1%
2  O=S(=O)(NC1CCN(CCCc2noc3cc(F)ccc23)C1)c1ccc2cc(Cl)ccc2c1 (centres unmarked) [Compound 23]  UniProtKB P50406              −1%
3  O=S(=O)(NC1CCN(CCCc2noc3cc(F)ccc23)C1)c1cc2ccccc2s1 (centres unmarked) [Compound 25]  UniProtKB P50406               0%

Lookup: Provide 5-HT6 ag [%] value for the following compound: O=S(=O)(NC1CCN(CCCc2noc3cc(F)ccc23)C1)c1cc2ccccc2o1 (centres unmarked) [Compound 216]
Found: −5%

Lookup: Provide 5-HT6 ag [%] value for the following compound: O=S(=O)(NCC1CCN(CCOc2cccc3ccccc23)C1)c1ccc2ccccc2c1 (centres unmarked) [Compound 124]
Found: 7%

Lookup: Provide 5-HT6 ag [%] value for the following compound: Cc1ccc2sc(S(=O)(=O)NC3CCN(CCCc4noc5cc(F)ccc45)C3)cc2c1 (centres unmarked) [Compound 226]
Found: −5%

----------
biological target: 5-HT1A receptor (rat hippocampus) (Rattus norvegicus); construct: hippocampus; from tissue; host or cells: rat hippocampus; test: Radioligand binding assay, serotoninergic 5-HT1A receptors; details: binding assay result in %, Table 5a;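 further: test compound at 1 µM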
Sequence (P19327 whole entry): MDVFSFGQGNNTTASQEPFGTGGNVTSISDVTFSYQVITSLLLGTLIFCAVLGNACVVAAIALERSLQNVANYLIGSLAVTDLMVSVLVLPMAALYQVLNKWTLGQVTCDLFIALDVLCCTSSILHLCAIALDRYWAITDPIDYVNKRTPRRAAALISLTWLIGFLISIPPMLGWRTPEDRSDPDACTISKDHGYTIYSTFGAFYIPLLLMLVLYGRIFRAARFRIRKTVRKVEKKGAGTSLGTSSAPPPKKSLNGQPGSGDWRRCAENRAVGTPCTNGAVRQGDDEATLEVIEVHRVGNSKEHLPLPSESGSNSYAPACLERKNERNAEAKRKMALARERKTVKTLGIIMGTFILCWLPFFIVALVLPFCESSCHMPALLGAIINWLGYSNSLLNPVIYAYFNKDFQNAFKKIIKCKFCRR
Readings of inhibition at 1 µM for the listed compounds
Just the number in %, nothing appended.

> print(dat)
                                   compound  unit.name  reported.result
1  O=S(=O)(N[C@H]1CCN(CCCc2noc3cc(F)ccc23)C1)c1cc2ccc(Cl)cc2s1          %               38
2  COc1cccc(S(=O)(=O)NCC2CCN(CCCc3noc4cc(F)ccc34)C2)c1 (stereo not shown)          %               30

Lookup: Specify inhibition at 1 µM for Cn1ccc2c(S(=O)(=O)NCC3CCN(CCCc4noc5cc(F)ccc45)C3)cccc21 (stereo not shown) , system 5-HT1A receptor (rat hippocampus) (Rattus norvegicus).
Found: 42

Lookup: Specify inhibition at 1 µM for O=S(=O)(N[C@@H]1CCN(CCCc2noc3cc(F)ccc23)C1)c1csc2ccccc12 , system 5-HT1A receptor (rat hippocampus) (Rattus norvegicus).
Found: 76

----------
Biological target: 5-HT2A receptor (Homo sapiens, UniProt P28223)
Construct: purchased PerkinElmer
Sequence (P28223 whole entry): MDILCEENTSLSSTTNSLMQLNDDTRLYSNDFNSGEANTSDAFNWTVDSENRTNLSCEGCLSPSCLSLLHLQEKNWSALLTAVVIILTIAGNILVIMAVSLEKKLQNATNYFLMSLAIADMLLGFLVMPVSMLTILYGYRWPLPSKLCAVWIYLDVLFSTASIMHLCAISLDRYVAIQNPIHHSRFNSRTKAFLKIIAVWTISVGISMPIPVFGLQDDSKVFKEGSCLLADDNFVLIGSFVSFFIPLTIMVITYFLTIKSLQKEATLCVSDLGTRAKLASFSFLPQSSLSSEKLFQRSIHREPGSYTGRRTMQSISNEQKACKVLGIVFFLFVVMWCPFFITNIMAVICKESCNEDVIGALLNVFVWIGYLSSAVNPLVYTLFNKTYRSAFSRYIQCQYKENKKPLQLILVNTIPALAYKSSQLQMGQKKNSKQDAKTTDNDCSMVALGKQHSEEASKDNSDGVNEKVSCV
Assay: Radioligand binding assay, serotoninergic 5-HT2A receptors
Details: binding assay result in %, Table 5a
From the text: The specific ligand binding to the receptors is defined as the difference between the total binding and the non-specific binding determined in the presence of the excess of unlabelled ligand. The results are expressed as a percent of control specific binding ((measured specific binding/control specific binding)×100) and as a percent inhibition of control specific binding (100−((measured specific binding/control specific binding)×100)) obtained in the presence of the test compounds. […]
Threshold rule: inhibition at 1 µM greater than or equal to 60% is Condition met; below that, Condition not met.

Below, 4 compounds whose answers are already recorded.
> print(dat)
                                   compound        class.label
1  O=S(=O)(NCC1CN(CCOc2cccc3c2OCCO3)C1)c1ccc(Cl)cc1  Condition not met
2  O=S(=O)(NC1CCN(CCCc2noc3cc(F)ccc23)C1)c1cccc(Cl)c1 (centres unmarked)      Condition met
3  CC1(C)Cc2cccc(OCCN3CCC(CNS(=O)(=O)c4cccc(O)c4)C3)c2O1 (centres unmarked)      Condition met
4  O=S(=O)(NCC1CN(CCCc2noc3cc(F)ccc23)C1)c1ccc(-c2ccccc2)cc1      Condition met

Lookup: Textbook exercise: given the entry O=S(=O)(NC1CCN(CCCc2c[nH]c3ccc(Cl)cc23)C1)c1ccc(F)cc1 (centres unmarked) , state whether its inhibition at 1 µM is greater than or equal to 60%.
Found: Condition met

Lookup: Textbook exercise: given the entry O=S(=O)(NCC1CCN(CCCc2noc3cc(F)ccc23)C1)c1cccc2ccccc12 (centres unmarked) , state whether its inhibition at 1 µM is greater than or equal to 60%.
Found: Condition met

Lookup: Textbook exercise: given the entry O=S(=O)(NCC1CCN(CCOc2cccc3c2OCCO3)C1)c1ccc(Cl)c(Cl)c1 (centres unmarked) , state whether its inhibition at 1 µM is greater than or equal to 60%.
Found: Condition met

Lookup: Textbook exercise: given the entry O=S(=O)(NC1CCN(CCCc2noc3cc(F)ccc23)C1)c1ccc2c(c1)OCO2 (centres unmarked) , state whether its inhibition at 1 µM is greater than or equal to 60%.
Found: Condition not met
